Assign GI50 to each entry below.
- System: OVCAR-4
- procedure.text: NCI tumour cell line growth inhibition, 48 h
Activity calls are given as the source filed them. No stated cut-off is given here; in the data, active = GI50 up to about 1.1 µM and inactive = higher.

Examples with their reported GI50 follow.
CCN(CC)CCCC(C)Nc1ccnc2cc(Cl)ccc12 (stereo not given) [CHLOROQUINE PHOSPHATE] = 51.3 µM (inactive)
O=C(O)CCC(N/C=C1/N=C(c2ccccc2)OC1=O)C(=O)O (stereo not given) = > 100 µM (inactive)
FC1OC2OC1C(OCc1ccccc1)C(OCc1ccccc1)C2OCc1ccccc1 (stereo not given) = 34.1 µM (inactive)
CCNCCNC(=O)c1ccc(Br)cc1 = > 100 µM (inactive)

Note: attention shifts to another entry.
Hey, OVCAR-4 data for CCCCN(CCCC)CCC(O)c1cc(-c2ccc(C(F)(F)F)cc2)nc(-c2ccc(C(F)(F)F)cc2)c1 (stereo not given) : GI50 came out at > 100 µM (inactive)
